# credit: ChEMBL document CHEMBL1697781

# System: Hepatotoxicity
# assay remarks: FDA HLAED, serum glutamic pyruvic transaminase (SGPT) increase
# run conditions: human
metric name: SGPT Increase - Activity Score

These recorded examples may help you get a feel for the data.
CC(=O)CC(c1ccccc1)c1c(O)c2ccccc2oc1=O (stereo not given) = Marginally Active
COCCOC(=O)C1=C(C)NC(C)=C(C(=O)OC(C)C)C1c1cccc([N+](=O)[O-])c1 (stereo not given) = Active
C=CCN1C[C@H](C(=O)N(CCCN(C)C)C(=O)NCC)C[C@@H]2c3cccc4[nH]cc(c34)C[C@H]21 = Inactive
N[C@@H](C(=O)N[C@@H]1C(=O)N2C(C(=O)O)=C(Cl)CS[C@H]12)c1ccccc1 [CEFACLOR ANHYDROUS] = Inactive
CCOC(=O)[C@H](CCc1ccccc1)N[C@@H](C)C(=O)N1[C@H](C(=O)O)C[C@H]2CCCC[C@@H]21 = Marginally Active

Answer with the recorded SGPT Increase - Activity Score for the compound listed here: CC(C)(O/N=C(\C(=O)N[C@@H]1C(=O)N2C(C(=O)[O-])=C(C[n+]3ccccc3)CS[C@H]12)c1csc(N)n1)C(=O)O
Inactive

Answer with the recorded SGPT Increase - Activity Score for the compound listed here: O=C(O)Cc1ccccc1Nc1c(Cl)cccc1Cl
Active

---

# Tested on: Hepatotoxicity
# assay remarks: FDA HLAED, gamma-glutamyl transferase (GGT) increase
# run conditions: human
metric name: GGT Increase - Number of Reports

These recorded examples may help you get a feel for the data.
OC(Cn1cncn1)(Cn1cncn1)c1ccc(F)cc1F = >= 4
C[C@H](CCC(=O)O)[C@H]1CC[C@H]2[C@@H]3[C@@H](O)C[C@@H]4C[C@H](O)CC[C@]4(C)[C@H]3CC[C@]12C = < 4
CC(CCc1ccccc1)NCC(O)c1ccc(O)c(C(N)=O)c1 (stereo unspecified) = < 4
O=C(O)c1cc(-c2ccc(F)cc2F)ccc1O = < 4
CN(C)CCC=C1c2ccccc2COc2ccccc21 [DOXEPIN] = < 4
Cc1ccnc2c1NC(=O)c1cccnc1N2C1CC1 = >= 4
O=c1[nH]cnc2c1ncn2[C@H]1CC[C@@H](CO)O1 = < 4
Clc1ccccc1CN1CCc2sccc2C1 = < 4
CCCCCCCCCC(=O)CC(=O)O[C@H]1CC[C@H]2[C@@H]3CCC4=CC(=O)CC[C@]4(C)[C@H]3CC[C@]12C [TESTOSTERONE KETOLAURATE] = < 4
C[C@]12CC[C@@H]3c4ccc(OC(=O)c5ccccc5)cc4CC[C@H]3[C@@H]1CC[C@@H]2O [ESTRADIOL BENZOATE] = < 4

Answer with the recorded GGT Increase - Number of Reports for the compound listed here: CO/N=C(\C(=O)N[C@@H]1C(=O)N2C(C(=O)[O-])=C(C[N+]3(C)CCCC3)CS[C@H]12)c1csc(N)n1
< 4

Answer with the recorded GGT Increase - Number of Reports for the compound listed here: CC(N)C12CC3CC(CC(C3)C1)C2 (stereo unspecified)
< 4

Answer with the recorded GGT Increase - Number of Reports for the compound listed here: CC(C)(C)NC(=O)[C@@H]1C[C@@H]2CCCC[C@@H]2CN1C[C@@H](O)[C@H](Cc1ccccc1)NC(=O)[C@H](CC(N)=O)NC(=O)c1ccc2ccccc2n1
< 4

Answer with the recorded GGT Increase - Number of Reports for the compound listed here: C[C@@H]1CN([C@H]2CC[C@](C#N)(c3ccc(F)cc3)CC2)CC[C@]1(C(=O)O)c1ccccc1
< 4

Answer with the recorded GGT Increase - Number of Reports for the compound listed here: Nc1nc(F)nc2c1ncn2[C@@H]1O[C@H](CO)[C@@H](O)[C@@H]1O
< 4

Answer with the recorded GGT Increase - Number of Reports for the compound listed here: O=C(O)CCCCCCCC(=O)O
< 4

Answer with the recorded GGT Increase - Number of Reports for the compound listed here: CC[C@H]1OC(=O)[C@H](C)[C@@H](O[C@H]2C[C@@](C)(OC)[C@@H](O)[C@H](C)O2)[C@H](C)[C@@H](O[C@@H]2O[C@H](C)C[C@H](N(C)C)[C@H]2O)[C@](C)(O)C[C@@H](C)CN(C)[C@H](C)[C@@H](O)[C@]1(C)O
>= 4

Answer with the recorded GGT Increase - Number of Reports for the compound listed here: COCCOC(=O)C1=C(C)NC(C)=C(C(=O)OC(C)C)C1c1cccc([N+](=O)[O-])c1 (stereo unspecified)
< 4

Answer with the recorded GGT Increase - Number of Reports for the compound listed here: CN1CC[C@]23c4c5ccc(O)c4O[C@H]2C(=O)CC[C@H]3[C@H]1C5 [HYDROMORPHONE]
< 4

Answer with the recorded GGT Increase - Number of Reports for the compound listed here: C[N+](C)(C)C[C@H](O)CC(=O)[O-]
< 4
